# System: Saccharomyces cerevisiae;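 note: PSI derived as read-weighted mean over the 8 sorting bins, only variants exceeding 10 total reads kept, mCherry placed adjacent to the peptide and sfGFP distal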
# test: protein stability index of tFT-peptide fusion in wild type (PSI (0-1 scale)); higher = more stable (slower turnover)
# condition.context: genetic background: wild type
Records here are stratified by protein stability index; strata: L: < 0.1; M: ≥ 0.1 and < 0.3; H: ≥ 0.3

sequence | discrete.label
LVVYLSCVACIT | L
FSMRWTFRMWVN | L
AITLPMCPLLLF | H
FSMRWPFRYWVN | L
LKILRQKKNHQN | H
PSLAASFPRVVG | H
VRGAVGGWRLVL | H
RLVSLPILLFFR | L
RVTFLDAIYFRI | H
AITLPMCPLLLL | H
GLYMCSTGCWFR | H
VRGAVGGWILVG | M
CTSCYYKFRTNN | M
PNLAASFWRVVG | M
CTSCGYKFRDNN | H
DLIQPLPVQFLN | M
QVTRLDAIYFRI | H
WRWRVGLWRGAS | M
AITLPECPLLLR | H
GLYMMSVGCWFR | M
LVVWLSCVACIN | L
QITLPMCPLLLR | M
VRGAVGGWRLVGI | H
KKHKKRQKQKIN | L
RVTRLDAIYFRIS | M
RSLRVLLPLDFR | H
RLCQPLPVQFLN | L
KSHKKGQKQKIN | M
RVTRMDAIYFRI | H
CVTRLDAIYFRI | M
FSMRWTFRYPVN | H
LKILWQKMNHQN | M
PDKRNHLIKLLY | H
PSLAVSFWRVVG | M
AIMLPMCPLLLR | M
CCVSLPILLFFR | L
LVVYLTCVACIN | L
PDKSNHLIKLLN | M
CTSCGYKFRTQN | M
GLYMWSVGCWFR | M
FSMRWMFRYWVN | L
LKILRDKMNHQN | M
FSMRWIFRYWVN | M
WVVYLSCVACIN | L
PDKQNHLIKLLN | M
CTSCGYKFRTNF | H
AITLPMCPGLLR | H
KKHKKNQKQKIN | M
ARWRVGYWRGAS | H
LVVYLSCVAGIN | M
PDKRNHLIKLKN | M
AITLPMDPLLLR | H
FSMRWTFRYWVF | L
GLYMCSVGCWIR | M
PSLAASFWRVVV | M
PSLSASFWRVVG | M
STSCGYKFRTNN | M
AITLPMYPLLLR | M
LVVYLSCVADIN | M
LVVYLSAVACIN | L
PSLAKSFWRVVG | H
GLNMCSVGCWFR | M
GLYMDSVGCWFR | H
CLVSLKILLFFR | M
LKILRQKMIHQN | M
RLIQPLPVQFEN | H
PDKRNHLIKFLN | M
PSLAAVFWRVVG | M
CLVSLPICLFFR | L
RLIQPLKVQFLN | L
CTSCGYKFATNN | H
LKILMQKMNHQN | M
ARWRVGLWRGAS | H
MKILRQKMNHQN | M
ARWRVGFWRGAS | H
FSMRWTFRYWCN | L
FDMRWTFRYWVN | L
AITLPMCPLLLRE | H
RLIQPLYVQFLN | L
RVTRLDRIYFRI | M
